Hello, the source for this data is patent US20250339392A1, in case you need it.

Target: LRRC8 channel (Homo sapiens)
Construct: endogenous in cells
Sequence (Q8IWT6 whole entry): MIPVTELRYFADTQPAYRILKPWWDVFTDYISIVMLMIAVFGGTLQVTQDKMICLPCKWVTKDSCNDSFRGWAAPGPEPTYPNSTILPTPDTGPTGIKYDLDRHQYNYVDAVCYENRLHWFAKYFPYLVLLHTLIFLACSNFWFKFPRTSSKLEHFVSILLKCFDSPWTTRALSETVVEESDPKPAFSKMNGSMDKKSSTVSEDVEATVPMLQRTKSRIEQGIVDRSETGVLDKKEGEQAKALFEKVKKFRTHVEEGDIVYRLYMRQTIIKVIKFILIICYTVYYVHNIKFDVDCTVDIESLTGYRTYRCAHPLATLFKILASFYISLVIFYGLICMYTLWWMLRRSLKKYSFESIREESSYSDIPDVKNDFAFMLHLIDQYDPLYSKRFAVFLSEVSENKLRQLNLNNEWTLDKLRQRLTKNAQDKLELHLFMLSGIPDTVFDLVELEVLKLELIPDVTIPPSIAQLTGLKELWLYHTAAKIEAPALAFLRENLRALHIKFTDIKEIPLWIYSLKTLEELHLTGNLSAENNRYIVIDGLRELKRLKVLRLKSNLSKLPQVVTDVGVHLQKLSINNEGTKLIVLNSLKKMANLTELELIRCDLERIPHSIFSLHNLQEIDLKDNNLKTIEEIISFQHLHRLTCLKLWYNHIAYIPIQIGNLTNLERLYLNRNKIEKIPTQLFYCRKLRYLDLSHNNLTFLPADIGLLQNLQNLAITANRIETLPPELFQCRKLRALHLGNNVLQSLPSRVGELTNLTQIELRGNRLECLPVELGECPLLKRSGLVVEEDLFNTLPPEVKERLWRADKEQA
Experiment: swell-activated currents recorded from HEK cells
value-type: pIC50
Scale: pIC50 equals -log10([C]), with [C] in mol/L.

-- ask Entry CCCCC1(C2CCCC2)Cc2cc(OCCCC(=O)O)c(Cl)c(Cl)c2C1=O (stereo not shown) has what pIC50?
-- reply 5.40
